Read-out record for Cytochrome P450 3A4 (Homo sapiens): IC50
The reply should contain only the number, in µM.

Ask: What value of measured IC50 is listed for CC(C)[C@H](Nc1ncnc2[nH]ccc12)c1ccc2c(c1)S(=O)(=O)CCC2 ?
Result: 3.2

Ask: Moving on to CC(C)[C@H](Nc1ncnc2[nH]c(-c3cnn(C)c3C#N)cc12)c1ccc2c(n1)OCCO2
Result: 3.69

* * *

molecular target: Cytochrome P450 2C19 (Homo sapiens, UniProt P33261)
Sequence (P33261 whole entry): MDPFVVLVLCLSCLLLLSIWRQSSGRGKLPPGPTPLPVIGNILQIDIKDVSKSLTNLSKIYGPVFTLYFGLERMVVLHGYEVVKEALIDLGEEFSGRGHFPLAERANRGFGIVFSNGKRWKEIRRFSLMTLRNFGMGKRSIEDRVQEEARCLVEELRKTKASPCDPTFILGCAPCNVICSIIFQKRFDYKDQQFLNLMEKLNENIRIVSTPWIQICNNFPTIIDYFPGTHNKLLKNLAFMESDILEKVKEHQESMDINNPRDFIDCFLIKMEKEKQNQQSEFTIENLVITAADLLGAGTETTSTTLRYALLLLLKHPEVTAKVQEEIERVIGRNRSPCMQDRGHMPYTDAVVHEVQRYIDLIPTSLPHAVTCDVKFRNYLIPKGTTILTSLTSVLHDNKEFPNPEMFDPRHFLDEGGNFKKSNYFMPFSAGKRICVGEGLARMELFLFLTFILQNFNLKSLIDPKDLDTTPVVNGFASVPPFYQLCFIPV
quantity.measured: pIC50
Entry type: numeric. Quantity: pIC50, the -log10 of concentration in molar units.

Ask: What value of measured pIC50 is listed for CC(C)[C@H](Nc1ncnc2[nH]c(-c3cnn(C)c3C#N)cc12)c1ccc2c(n1)OCCO2 ?
Result: 4.77
